study target: hGPR120 (Homo sapiens)
Construct: expressed in transfected cells; host or cells: CHO-K1
Sequence (Q5NUL3 whole entry): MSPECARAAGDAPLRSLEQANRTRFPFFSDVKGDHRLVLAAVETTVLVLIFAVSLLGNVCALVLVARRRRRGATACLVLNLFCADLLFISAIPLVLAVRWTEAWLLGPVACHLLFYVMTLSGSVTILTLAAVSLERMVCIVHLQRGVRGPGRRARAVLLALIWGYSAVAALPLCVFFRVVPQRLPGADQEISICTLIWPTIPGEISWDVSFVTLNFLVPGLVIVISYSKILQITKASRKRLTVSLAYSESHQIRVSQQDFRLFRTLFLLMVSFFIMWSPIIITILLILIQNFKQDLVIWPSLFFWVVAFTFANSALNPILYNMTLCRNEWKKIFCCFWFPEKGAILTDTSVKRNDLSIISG
measurement protocol: Measurement of Activity of GPR120 Agonist (Cell-Based Assay), Calcium 5 dye fluorescence
condition label: CHO-K1 cells expressing Ga16 and hGPR120
pEC50: −log10 of the molar value.
measurement kind: pEC50

As a guide, the following entries are already answered.
molecule=Oc1cc(COc2c(F)cc(-c3cccnc3SC3CCC3)cc2F)on1 study_target="hGPR120 (Homo sapiens)" observed="> 6.70"
molecule=Cc1cc(OC(C)C)nc(-c2cc(F)c(N3CCC(CC(=O)O)CC3)c(F)c2)n1 study_target="hGPR120 (Homo sapiens)" observed="5.70 to 6.70"
molecule=O=C(O)CCCOc1c(F)cc(-c2csc(COCC3CC3)c2)cc1F study_target="hGPR120 (Homo sapiens)" observed="> 6.70"
molecule=O=C(O)CCCSc1ccc(-c2cccc3c2OC2(CCCC2)O3)cc1 study_target="hGPR120 (Homo sapiens)" observed="5.70 to 6.70"
molecule="CC(CCCC(=O)O)c1c(F)cc(-c2cc(Cl)cc3c2OC(C)(C)C3)cc1F (stereo not drawn)" study_target="hGPR120 (Homo sapiens)" observed="5.70 to 6.70"

Hi, could you look up pEC50 for each item in my list?
1. CC(CCCC(=O)O)c1c(F)cc(-c2cccc3c2OC(F)(F)O3)cc1F (stereo not drawn)
2. Cc1cc(-c2cc(F)c(N3CCC(CC(=O)O)CC3)c(F)c2)nc(OC2CCC2)n1
3. O=C(O)CC1CN(c2c(F)cc(-c3cccc(OC4CCCC4)n3)cc2F)C1
4. CC(C)COCc1cc(-c2cc(F)c(OCCCC(=O)O)c(F)c2)cs1

Solution:
1. > 6.70
2. 5.70 to 6.70
3. > 6.70
4. > 6.70
